System: NCI-H460
method_description: MTT cell viability assay, NCI-H460
Type: cell-based
experimental_setup: Homo sapiens, 72 h, read-out: Decrease in cell viability, IC50
recorded_endpoint: IC50 (µM)
Lab book: enter the figure in µM, no units written.

Query string: GET /values?readout=IC50&system=NCI-H460&item= CN1CCN(CCOC(=O)N(c2cccc(Br)c2)c2nc(SCCN3CCOCC3)nc3c2cnn3CC(Cl)c2ccccc2)CC1 (centres unmarked)
Result string: 2.41

Query string: State its IC50 on NCI-H460: Clc1ccccc1CNc1ncnc2c1cnn2CC(Cl)c1ccc(Br)cc1 (centres unmarked)
Result string: 14.6

Query string: Form: Entry = Cc1nc(Nc2ncc(C(=O)Nc3c(C)cccc3Cl)s2)cc(N2CCN(CCO)CC2)n1 [Dasatinib, reference compound] | System = NCI-H460 | IC50 = ____
Result string: 3.93

Query string: What value of IC50 on NCI-H460 does ClC(Cn1ncc2c(Nc3cccc(Br)c3)nc(SCCN3CCOCC3)nc21)c1ccccc1 (centres unmarked) have?
Result string: 6.24

Query string: Requested read-out IC50, target or system NCI-H460, entry CN1CCN(CCOC(=O)N(Cc2ccccc2Cl)c2ncnc3c2cnn3CC(Cl)c2ccc(Br)cc2)CC1 (centres unmarked)
Result string: 4.27

Reference source: paper PMC8582576
